target: Dihydroorotate dehydrogenase (quinone), mitochondrial (Plasmodium falciparum (isolate 3D7)); assay: PfDHODH enzyme inhibitors, primary screen, biochemical, C-terminal His tag, absorbance 600 nm (AID 1175); settings: DCIP absorbance 600 nm, higher = more signal, called active from +8 up or from −8 down;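 also: recombinant parasite enzyme with a five histidine tag at its C terminus; test concentration not given here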
Label scheme, based on composite z-score: class 0: < -0.3; class 1: ≥ -0.3 and < 0.3; class 2: ≥ 0.3

compound	qualitative.label
CC(C)CN1CCc2nc(-c3ccccc3)c3c(c2CC1)CO[C@@H](C)C3	class 2
O=C1C2C=CC(C(O)c3ccc([N+](=O)[O-])cc3)N(Nc3ccc([N+](=O)[O-])cc3)C2C(=O)N1c1ccccc1 (centres undefined)	class 2
CCCNC(=O)OC[C@H]1O[C@H](CCON=C2[C@H]3CCn4c(=O)n(-c5ccccc5)c(=O)n4[C@H]3[C@H](O)[C@@H]3O[C@H]23)C=C[C@@H]1Oc1ccc(OC)cc1	class 1
C=CCN1C(=O)[C@]2(O[C@H](CCn3cc(CCO)nn3)[C@@H]([Si](C)(C)c3ccc(OC)cc3)[C@@H]2C)c2cc(N3CCOC3=O)ccc21	class 1
C=CCOC(=O)[C@H]1[C@@H]2C(=O)O[C@@H](c3ccccc3)[C@@H](c3ccccc3)N2[C@@H](c2ccc(OCCOC(=O)[C@H]3C[C@H]4C(=O)N[C@@H](Cc5ccccc5)C(=O)N4[C@H]3c3ccc(O)cc3)cc2)[C@]12C(=O)Nc1ccccc12	class 0
CC(C)=NOCc1ccc(-c2cc(-c3ccccc3)no2)cc1	class 1
O=C1C[C@]2(c3ccc([N+](=O)[O-])cc3)C(=O)N(CCN3CCOCC3)c3cc(CO)ccc3[C@H]2N1CC12CC3CC(CC(C3)C1)C2	class 0
CCOC(=O)CCN1C(=O)[C@H]2[C@H]3[C@H](O)[C@H](O)CC(=NOC[C@@H](O)COCc4ccco4)[C@@H]3CC[C@H]2C1=O	class 2

* * *

target: Carbonic anhydrase 2 (Homo sapiens) (UniProt P00918); assay: CAII small-molecule binders, profiling panel, biochemical, small-molecule microarray, Alexa647-labelled CAII (AID 1122); details: CAII-A647 binding fluorescence, higher = more signal
Could you label it True if measured composite z-score is -0.3 or higher, and False otherwise?

                                   compound                            assayed_system  qualitative_label
0  C=C(/C(=C/C[C@@H](OC(=O)c1ccncc1)c1ccc(OCCO)cc1)c1cnc2ccccc2c1)C(C)C  Carbonic anhydrase 2 (Homo sapiens) (UniProt P00918)               True
1  C[C@@H]1C=CCC(=O)OC[C@H](C)C(=O)N[C@@H](C)C(=O)OC1  Carbonic anhydrase 2 (Homo sapiens) (UniProt P00918)              False
2  CO[C@@H]1COC(=O)CC=C[C@@H](C)[C@@H]2C=C[C@H](O)[C@@H](COC(=O)[C@H](C)NC(=O)CC=C[C@H]1C)O2  Carbonic anhydrase 2 (Homo sapiens) (UniProt P00918)              False
3  Cc1ccc(S(=O)(=O)N[C@@H]2COC(=O)[C@H](C)COC(=O)CC=C[C@H]2C)cc1  Carbonic anhydrase 2 (Homo sapiens) (UniProt P00918)               True
4  CO[C@@H]1COC(=O)[C@H](C)NC(=O)[C@@H](C)COC(=O)CCC[C@H]1C  Carbonic anhydrase 2 (Homo sapiens) (UniProt P00918)               True
5  COC(=O)[C@H](C)NC(=O)CCC1CC(OC(=O)NCc2cccc3ccccc23)CC2(CCCC(COC(=O)NCC3CCCCC3)O2)O1 (stereo partly specified)  Carbonic anhydrase 2 (Homo sapiens) (UniProt P00918)               True

* * *

# composite z-score annotations
test system: Sonic hedgehog protein (Shh); test: small-molecule binders of Shh protein, primary screen, biochemical, small-molecule microarray, 635/667 nm fluorescence (AID 1151); conditions: small-molecule microarray binding, 635 nm fluorescence; higher = more signal;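 also: Shh protein binding to compounds spotted on small-molecule microarray slides; score combines spot fluorescence intensity with signal-to-noise across triplicate slides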

compound	composite z-score
CO[C@H]1COC(=O)[C@@H]2CCCN2C(=O)[C@@H](C)COC(=O)CC=C[C@@H]1C	2.14
COC(=O)CC=C[C@H](C)[C@H](CO)NS(=O)(=O)c1ccc(C)cc1	0.82
CCCNC(=O)[C@@H]1c2ccccc2C(=O)N(Cc2ccccc2Cl)[C@H]1c1ccc(CO)cc1	1.9
COC(=O)C1=C(C)N(Cc2ccccc2)[C@]23O[C@](C(=O)OC)(C(=O)N2[C@@H]1c1ccccc1)[C@H]1CCOC(=O)[C@H]13	1.05
CC(C)CON=C1C[C@@H](O)[C@@H](O)[C@@H]2[C@@H]3C(=O)N([C@@H](C)c4ccccc4)C(=O)[C@@H]3CC[C@H]12	1.58
COC(=O)CC1OC1[C@H](C)[C@@H](OC)C(C)C (stereo partly drawn)	0.813
COC(=O)[C@@]1(Cc2ccc(F)cc2)[C@@H]2C(=CC(=O)[C@H]2CC(=O)C(=O)N(C)C)CN1C(=O)c1ccccc1	-0.367
COc1ccc(COC(=O)NN=C2C[C@@H](O)[C@@H](O)[C@@H]3[C@@H]4C(=O)N(c5ccc(F)cc5F)C(=O)[C@@H]4CC[C@@H]23)cc1	-1.13
CC(CCN1CCc2nc(-c3ccccc3)c(-c3ccccc3)cc2C1)=NO[C@@H](C)c1cn([C@H](CO)Cc2ccccc2)nn1	1.25
O=C1[C@H]2[C@H]3[C@H](O)[C@H](O)CC(=NOC[C@@H](O)COCc4ccco4)[C@@H]3CC[C@H]2C(=O)N1c1ccc(F)cc1F	0.749
C=CCNC(=O)[C@H]1[C@@H]2C(=O)O[C@@H](c3ccccc3)[C@@H](c3ccccc3)N2[C@@H](c2ccc(O)cc2)[C@]12C(=O)N(C(=O)OCCOC)c1ccc(C#CC3=CCCCC3)cc12	1.45
CCc1cc2c(nc1CC)CCN(CCC(C)=NOC[C@@H](O)COCc1ccco1)C2	2.31
CCOC(=O)NN=C1C[C@@H](O)[C@@H](O)[C@@H]2[C@@H]3C(=O)N(CC)C(=O)[C@@H]3CC[C@@H]12	0.784

* * *

assay: small-molecule binders of probe aNOTCH2, primary screen, biochemical, small-molecule microarray, 635/667 nm fluorescence (AID 1121); conditions: higher = more signal;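 also: score merges feature fluorescence read at 667 nm with its signal to noise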
Parameter: composite z-score. Scope: all listed entries.

compound	composite z-score
CC(C)=CCCC(C)=CCON=C1C[C@@H](O)[C@@H](O)[C@@H]2[C@@H]3C(=O)N(C[C@@H]4CCCO4)C(=O)[C@@H]3CC[C@@H]12	-0.0907
CCc1cc2c(nc1CC)CCN(CCC(C)=NO[C@@H](C)c1cc(-c3c(C)cc(C)cc3C)no1)C2	-0.0649
O=C1O[C@@H](c2ccccc2)[C@@H](c2ccccc2)N2[C@@H](c3ccc(OCCO)cc3)[C@]3(C(=O)Nc4ccccc43)[C@@H](C(=O)N3CCN(c4ncccn4)CC3)[C@H]12	-0.091
COCCNC(=O)OCC1CCCC2(CC(OC(=O)NCCc3ccc(F)cc3)CC(CCC(=O)N[C@@H](C)C(=O)OC)O2)O1 (some centres not stated)	-0.144
O=C1C[C@@H](O)[C@@H](O)[C@@H]2[C@@H]3C(=O)N(c4cccc(Oc5ccccc5)c4)C(=O)[C@@H]3CC[C@@H]12	0.0364
COC(=O)[C@H](C)NC(=O)CCC1CC(OC(=O)NCCc2ccc(F)cc2)CC2(CCCC(COC(=O)NCC(c3ccccc3)c3ccccc3)O2)O1 (some centres not stated)	-0.1
CN1C(=O)[C@@]2(CCC(=O)OC(C)(C)C)N=C(c3ccc(OCCCO)cc3)O[C@H]2c2ccccc21	-0.165
CCOC(=O)[C@H](CC(C)C)NC(=O)CCC1CC(OC(=O)NCCc2ccc(F)cc2)CC2(CCCC(COC(=O)NCc3ccccc3)O2)O1 (some centres not stated)	-0.131
CC(=O)OC[C@H]1O[C@@H](ON=C(C)CCN2CCc3nc(-c4ccccc4)c(-c4ccccc4)cc3C2)[C@H](OC(C)=O)[C@@H](OC(C)=O)[C@@H]1OC(C)=O	-0.156
CO[C@@H]1COC(=O)CC=C[C@@H](C)[C@@H]2C=C[C@H](O)[C@@H](COC(=O)CCC[C@H]1C)O2	-0.184
COc1ccc(O[C@H]2C=C[C@@H](c3ccccc3)O[C@@H]2COC(=O)CCC(C)=NO[C@@H](C)c2cc(-c3c(C)cc(C)cc3C)no2)cc1	-0.153
CO[C@H]1COC(=O)CC=C[C@H](C)[C@@H](NS(=O)(=O)c2ccc(C)cc2)COC(=O)CC=C[C@@H]1C	-0.151
COc1ccc(OC[C@H]2Cc3c(-c4ccccc4)nc4c(c3CO2)CN(CCOc2ccccc2)CC4)cc1	-0.108
C=C(/C(=C/C[C@H](OC(C)=O)c1ccc(OCCO)cc1)c1cnc2ccccc2c1)C(C)C	-0.146
O=C1[C@H]2[C@H]3[C@H](O)[C@H](O)CC(=NOCc4ccccc4)[C@H]3CC[C@H]2C(=O)N1c1cccc(Oc2ccccc2)c1	-0.161
Cc1ccc(S[C@]2(C(=O)O)CC(=O)N(Cc3ccccc3)[C@@H]2c2ccc(CO)cc2I)cc1	-0.13
CC(C)OC(=O)C=C1C[C@@H](c2ccc(C#N)cc2)O[C@@H](c2ccc(C#N)cc2)O1	0.0186
COCCOC(=O)N1C(=O)[C@@]2(c3cc(C#CC4(O)CCCCCC4)ccc31)[C@H](c1ccc(OCCO)cc1)N1[C@H](c3ccccc3)[C@H](c3ccccc3)OC(=O)[C@H]1[C@@H]2C(=O)NC[C@H](O)c1ccccc1	-0.115
CC(C)CON=C1[C@H]2CCn3c(=O)n(-c4ccccc4)c(=O)n3[C@H]2[C@H](O)[C@@H]2O[C@H]12	0.0145
CCOC(=O)CCN1C(=O)[C@H]2[C@H]3[C@H](O)[C@H](O)CC(=NNC(=O)OCc4ccc(OC)cc4)[C@@H]3CC[C@H]2C1=O	-0.104
O=C1C2C=CC(C(O)c3ccc([N+](=O)[O-])cc3)N(Nc3ccc([N+](=O)[O-])cc3)C2C(=O)N1c1ccccc1 (configuration not stated)	0.0518
CC(CCN1CCc2nc(-c3ccccc3)c(-c3ccccc3)cc2C1)=NOC(C)CN1CCCCc2nc(C)c(C)cc21 (configuration not stated)	-0.14
